Target: T1, Extracellular domain of cyno PD1 (cPD1-ECD) (Macaca fascicularis (cynomolgus))
T1 construct: Expressed with a hexahistidine tag or as Fc fusion; also called cynoPD1-ECD; cynoPD-1-ECD
T1 chain: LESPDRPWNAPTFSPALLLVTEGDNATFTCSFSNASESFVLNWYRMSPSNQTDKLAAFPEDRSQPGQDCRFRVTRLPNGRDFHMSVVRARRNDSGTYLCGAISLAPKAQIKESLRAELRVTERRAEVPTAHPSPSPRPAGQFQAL
Assay: SPR ProteOn, cynoPD1-ECD; RANGE high replicate; RANGE high replicate
List of koff values.
quantity-name: koff (s⁻¹)

binder	quantity-name	result
PD1B187 (antibody, V domains shown, Tested as IgG2sigma; also called PD1H3/PD1L148) VH: QVQLVQSGAEVKKPGSSVKVSCKASGGTFSSYAISWVRQAPGQGLEWMGGIIPIFGTANYAQKFQGRVTITADESTSTAYMELSSLRSEDTAVYYCARPGLAAAYDTGSLDYWGQGTLVTVSS VL: EIVLTQSPATLSLSPGERATLSCRASQSVRSYLAWYQQKPGQAPRLLIYDASNRATGIPARFSGSGSGTDFTLTISSLEPEDFAVYYCQQRNYWPLTFGQGTKVEIK	koff	0.00185
PD1B175 (antibody, V domains shown, Tested as IgG2sigma; also called PD1H163/PH9L3) VH: QVQLVQSGAEVKKPGSSVKVSCKASGGTFKSYVIHWVRQAPGQGLEWMGGIIPIFGTANYAQKFQGRVTITADESTSTAYMELSSLRSEDTAVYYCARGYVRATGMLDYWGQGTLVTVSS VL: EIVLTQSPATLSLSPGERATLSCRASQSVSSYLAWYQQKPGQAPRLLIYDASNRATGIPARFSGSGSGTDFTLTISSLEPEDFAVYYCQQRSNWPLTFGQGTKVEIK	koff	0.00673
PD1B149 (antibody, human IgG2, kappa, V domains shown, IgG2sigma/kappa; VH 41, VL 50; also called PD1H24/PD1L128) VH: QVQLVQSGAEVKKPGSSVKVSCKASGGTFSSYAISWVRQAPGQGLEWMGGIIPIFGTANYAQKFQGRVTITADESTSTAYMELSSLRSEDTAVYYCARPGLAAAYDTGNLDYWGQGTLVTVSS VL: EIVLTQSPATLSLSPGERATLSCRASQSVRNYLAWYQQKPGQAPRLLIHDASNRATGIPARFSGSGSGTDFTLTISSLEPEDFAVYYCQQRNYWPLTFGQGTKVEIKR	koff	0.00365
PD1B11 (antibody, V domains shown, Tested as IgG2sigma/kappa; also called PD1H3/PH9L3) VH: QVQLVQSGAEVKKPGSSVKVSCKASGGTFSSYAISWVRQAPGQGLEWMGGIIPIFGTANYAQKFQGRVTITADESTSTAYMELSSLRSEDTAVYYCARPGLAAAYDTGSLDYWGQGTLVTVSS VL: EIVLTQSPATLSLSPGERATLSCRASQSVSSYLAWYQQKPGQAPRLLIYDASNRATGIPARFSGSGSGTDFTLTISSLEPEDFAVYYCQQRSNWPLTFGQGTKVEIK	koff	0.01
PD1B183 (antibody, human IgG2, kappa, V domains shown, IgG2sigma/kappa; VH 43, VL 54; also called PD1H3/PD1L109) VH: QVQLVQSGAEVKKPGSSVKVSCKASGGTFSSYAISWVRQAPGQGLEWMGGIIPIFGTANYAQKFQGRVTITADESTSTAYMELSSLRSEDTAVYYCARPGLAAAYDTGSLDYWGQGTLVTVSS VL: EIVLTQSPATLSLSPGERATLSCRASQSVSSYLAWYQQKPGQAPRLLIKDASNRATGIPARFSGSGSGTDFTLTISSLEPEDFAVYYCQQRGYWPLTFGQGTKVEIKR	koff	0.00876
